Target: recombinant human PMYT-1 (Myt1 kinase) (Homo sapiens)
Construct: full length PMYT-1 was expressed by baculovirus in insect cells using a N-terminal GST tag
Sequence (Q99640 whole entry): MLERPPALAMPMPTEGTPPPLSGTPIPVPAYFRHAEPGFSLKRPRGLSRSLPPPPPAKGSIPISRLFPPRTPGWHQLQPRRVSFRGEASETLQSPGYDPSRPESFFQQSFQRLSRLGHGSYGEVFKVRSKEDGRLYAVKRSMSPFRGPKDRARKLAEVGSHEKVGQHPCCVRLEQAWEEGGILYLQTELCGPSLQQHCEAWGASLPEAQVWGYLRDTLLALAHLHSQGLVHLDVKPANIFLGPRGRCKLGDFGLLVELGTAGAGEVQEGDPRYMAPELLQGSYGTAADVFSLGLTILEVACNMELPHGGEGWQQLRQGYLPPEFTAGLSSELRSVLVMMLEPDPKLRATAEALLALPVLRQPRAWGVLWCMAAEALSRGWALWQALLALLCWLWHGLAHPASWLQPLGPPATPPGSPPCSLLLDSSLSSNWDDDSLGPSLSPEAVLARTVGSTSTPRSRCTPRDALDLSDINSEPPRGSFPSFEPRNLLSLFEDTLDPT
Assay: LanthaScreen Europium (Eu) Kinase Binding Assay for Myt1 kinase
Settings: TR-FRET tracer 178 displacement, GST-tagged full length PMYT-1, 60 min, room temperature; mean IC50; read-out: LANTHA Kinase Binding for PMyt1
parameter: IC50

So for Cc1ccc(O)cc1-n1nc(-c2cccc(-c3ccncc3)c2)c(C(N)=O)c1N [Compound 7] , the logged IC50 turned out to be > 0.25 µM

So for Cc1cccc(-c2nn(-c3c(C)ccc(O)c3C)c(N)c2C(N)=O)c1 [Compound 63] , the logged IC50 turned out to be 0.01 to 0.1 µM

So for Cc1ccc(O)c(C)c1-n1nc(-c2ccccn2)c(C(N)=O)c1N [Compound 35] , the logged IC50 turned out to be ≤ 0.01 µM

New cases:
So for Cc1ccc2[nH]nc(C)c2c1-n1nc(-c2ccco2)c(C(N)=O)c1N (single isomer, unassigned) [Compound 103] , the logged IC50 turned out to be 0.01 to 0.1 µM

So for COc1ccccc1-c1nn(-c2c(C)ccc(O)c2C)c(N)c1C(N)=O [Compound 64] , the logged IC50 turned out to be > 0.25 µM

So for Cc1ccc(O)c(C)c1-n1nc(-c2cc3ccccc3o2)c(C(N)=O)c1N [Compound 72] , the logged IC50 turned out to be ≤ 0.01 µM

So for Cc1ccc(O)c(C)c1-n1nc(-c2cc(-c3ccccn3)co2)c(C(N)=O)c1N [Compound 98] , the logged IC50 turned out to be ≤ 0.01 µM

So for Cc1ccc(-c2nn(-c3c(C)ccc(O)c3C)c(N)c2C(N)=O)o1 [Compound 81] , the logged IC50 turned out to be ≤ 0.01 µM

So for COc1ccc(-c2nn(-c3cc(O)ccc3C)c(N)c2C(N)=O)cc1 [Compound 3] , the logged IC50 turned out to be > 0.25 µM

So for Cc1ccc(O)c(C)c1-n1nc(-c2cc(Br)co2)c(C(N)=O)c1N (single isomer, unassigned) [Compound 110] , the logged IC50 turned out to be 0.1 to 0.25 µM

So for Cc1ccc2[nH]ncc2c1-n1nc(-c2ccc(Br)o2)c(C(N)=O)c1N [Compound 85] , the logged IC50 turned out to be 0.01 to 0.1 µM

So for Cc1ccc(O)c(C)c1-n1nc(-c2ccc(-c3ccccc3)o2)c(C(N)=O)c1N [Compound 87] , the logged IC50 turned out to be ≤ 0.01 µM

So for Cc1ccc2[nH]ncc2c1-n1nc(-c2ccccc2)c(C(N)=O)c1N [Compound 5] , the logged IC50 turned out to be 0.01 to 0.1 µM

So for C=C(C)c1coc(-c2nn(-c3c(C)ccc(O)c3C)c(N)c2C(N)=O)c1 [Compound 97] , the logged IC50 turned out to be ≤ 0.01 µM

So for Cc1ccc(O)c(C)c1-n1nc(-c2cc(-c3cccnc3)co2)c(C(N)=O)c1N [Compound 94] , the logged IC50 turned out to be ≤ 0.01 µM

So for Cc1ccc(O)c(C)c1-n1nc(-c2nccn2C)c(C(N)=O)c1N [Compound 124] , the logged IC50 turned out to be 0.01 to 0.1 µM

So for Cc1ccc(O)cc1-n1nc(-c2cccc(Br)c2)c(C(N)=O)c1N [Compound 6] , the logged IC50 turned out to be > 0.25 µM

So for NC(=O)c1c(-c2cc(Br)co2)nn(-c2c(Cl)ccc(O)c2Cl)c1N [Compound 92] , the logged IC50 turned out to be 0.01 to 0.1 µM

So for Cc1ccc(O)c(C)c1-n1nc(-c2cccs2)c(C(N)=O)c1N [Compound 119] , the logged IC50 turned out to be ≤ 0.01 µM
